Target sequence: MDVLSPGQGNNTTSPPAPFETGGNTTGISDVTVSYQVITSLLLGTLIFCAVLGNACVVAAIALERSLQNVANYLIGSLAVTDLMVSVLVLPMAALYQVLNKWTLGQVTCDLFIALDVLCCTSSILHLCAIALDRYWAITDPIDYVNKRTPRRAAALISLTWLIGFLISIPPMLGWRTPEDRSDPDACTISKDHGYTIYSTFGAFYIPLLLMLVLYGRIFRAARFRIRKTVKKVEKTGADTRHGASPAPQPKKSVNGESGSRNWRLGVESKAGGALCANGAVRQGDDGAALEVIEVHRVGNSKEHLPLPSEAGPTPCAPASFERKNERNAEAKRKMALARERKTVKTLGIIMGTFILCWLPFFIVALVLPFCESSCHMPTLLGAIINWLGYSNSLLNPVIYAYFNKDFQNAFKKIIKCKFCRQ
Ki less than 5 nM is Y; Ki greater than or equal to 5 nM is N.

> print(dat)
                                   compound  class
1  COc1ccccc1N1CCN(C[C@H]2CO[C@@](CN3CCCCCC3=O)(c3ccccc3)O2)CC1 (relative stereo)      N
2  COc1ccccc1N1CCN(C[C@@H]2CO[C@@](CN3CCCCCC3=O)(c3ccccc3)O2)CC1 (relative stereo)      N
3  COc1ccccc1N1CCN(C[C@H]2CO[C@@](CN3C(=O)CC4(CCCC4)CC3=O)(c3ccccc3)O2)CC1 (relative stereo)      Y
4  COc1ccccc1N1CCN(C[C@H]2CO[C@@](CN3C(=O)CCCC3=O)(c3ccccc3)O2)CC1 (relative stereo)      Y
5  COc1ccccc1N1CCN(C[C@@H]2CO[C@](CN3CCCC3=O)(c3ccccc3)O2)CC1 (relative stereo)      N
6  COc1ccccc1N1CCN(C[C@H]2CO[C@](CN3CCCC3=O)(c3ccccc3)O2)CC1 (relative stereo)      N
7  COc1ccccc1N1CCN(C[C@@H]2CO[C@@](CN3C(=O)CCCC3=O)(c3ccccc3)O2)CC1 (relative stereo)      N

* * *

assay_target: Alpha-1A adrenergic receptor (Rattus norvegicus)
protocol: Antagonist activity at adrenergic alpha1A receptor in Wistar rat prostatic vas deferens assessed as inhibition of (-)-noradrenaline-induced tissue contraction treated 30 mins before (-)noradrenalin challenge
Assay type: functional, tissue-based
observable: pKb

> print(dat)
                                    molecule  value.observed
 1  COc1ccccc1N1CCN(C[C@@H]2CO[C@@](CN3C(=O)CCC3=O)(c3ccccc3)O2)CC1 (relative stereo)            7.32
 2  COc1ccccc1N1CCN(C[C@@H]2CO[C@@](CN3C(=O)CCCC3=O)(c3ccccc3)O2)CC1 (relative stereo)            7.36
 3  COc1ccccc1N1CCN(C[C@H]2CO[C@](CN3CCCC3=O)(c3ccccc3)O2)CC1 (relative stereo)            7.94
 4  COc1ccccc1N1CCN(C[C@H]2CO[C@@](CN3CCCCCC3=O)(c3ccccc3)O2)CC1 (relative stereo)            8.97
 5  COc1ccccc1N1CCN(C[C@H]2CO[C@@](CN3C(=O)CC4(CCCC4)CC3=O)(c3ccccc3)O2)CC1 (relative stereo)            7.72
 6  COc1ccccc1N1CCN(C[C@H]2CO[C@@](CN3C(=O)CCCC3=O)(c3ccccc3)O2)CC1 (relative stereo)            7.09
 7  COc1ccccc1N1CCN(C[C@H]2CO[C@@](CN3CCCCC3=O)(c3ccccc3)O2)CC1             7.3
 8  COc1ccccc1N1CCN(C[C@@H]2CO[C@@](CN3CCCCC3=O)(c3ccccc3)O2)CC1 (relative stereo)            7.32
 9  COc1ccccc1N1CCN(C[C@@H]2CO[C@@](CN3CCCCCC3=O)(c3ccccc3)O2)CC1 (relative stereo)            7.18
10  COc1ccccc1N1CCN(C[C@@H]2CO[C@](CN3CCCC3=O)(c3ccccc3)O2)CC1 (relative stereo)            7.34
11  COc1ccccc1N1CCN(CC2OCC(c3ccccc3)(c3ccccc3)O2)CC1 (stereo not drawn)            8.24
12  COc1ccccc1N1CCN(C[C@H]2CO[C@@](CN3C(=O)CCC3=O)(c3ccccc3)O2)CC1 (relative stereo)            7.45
13  COc1ccccc1N1CCN(C[C@@H]2CO[C@@](CN3C(=O)CC4(CCCC4)CC3=O)(c3ccccc3)O2)CC1 (relative stereo)            7.29
